Source listed as ChEMBL document CHEMBL4616701.

Assayed target: Histone-lysine N-methyltransferase EZH2 (Homo sapiens, UniProt Q15910)
Sequence (Q15910 whole entry): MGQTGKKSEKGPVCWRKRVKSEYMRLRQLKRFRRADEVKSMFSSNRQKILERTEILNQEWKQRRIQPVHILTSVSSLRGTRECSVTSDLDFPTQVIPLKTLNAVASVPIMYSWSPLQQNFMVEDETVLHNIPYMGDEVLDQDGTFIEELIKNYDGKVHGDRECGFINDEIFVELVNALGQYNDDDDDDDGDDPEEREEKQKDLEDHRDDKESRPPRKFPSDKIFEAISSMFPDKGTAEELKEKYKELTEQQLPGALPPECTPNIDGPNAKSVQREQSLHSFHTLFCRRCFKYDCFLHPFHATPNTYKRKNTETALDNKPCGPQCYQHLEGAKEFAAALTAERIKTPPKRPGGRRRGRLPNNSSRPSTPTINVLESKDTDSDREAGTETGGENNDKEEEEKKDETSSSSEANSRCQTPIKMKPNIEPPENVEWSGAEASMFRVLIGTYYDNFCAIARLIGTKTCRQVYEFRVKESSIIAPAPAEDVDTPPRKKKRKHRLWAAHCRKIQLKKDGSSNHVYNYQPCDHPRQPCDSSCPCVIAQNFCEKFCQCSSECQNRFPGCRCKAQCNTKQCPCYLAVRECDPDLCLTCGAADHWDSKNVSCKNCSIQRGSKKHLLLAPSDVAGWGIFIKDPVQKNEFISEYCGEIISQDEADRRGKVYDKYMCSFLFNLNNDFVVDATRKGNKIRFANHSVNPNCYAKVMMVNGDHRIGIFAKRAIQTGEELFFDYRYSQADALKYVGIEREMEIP
Run description: Inhibition of N-terminal FLAG-tagged EZH2 in PRC2 complex (unknown origin) expressed in baculovirus infected Sf9 cells using H2N-RKQLATKAAR(Kme0)SAPATGGVKKP-NTPEGBiot peptide as substrate preincubated with [3H]SAM for 4 to 5 hrs followed by substrate addition and measured after 20 hrs by Topcount reader analysis
Test readout: IC50

Chemical string | Reported result
Cc1cc(Cl)[nH]c(=O)c1CNC(=O)c1c(C)n([C@H](C)C2CCN(CC(F)(F)F)CC2)c2ccccc12 | 0.2 to 30 nM
Cc1cc(C)c(CNC(=O)c2c(C)n([C@H](C)C3CCN(CC(F)(F)F)CC3)c3ccccc23)c(=O)[nH]1 | 0.2 to 30 nM
Cc1cc(Cl)c(CNC(=O)c2c(C)n([C@H](C)C3CCN(CC(F)(F)F)CC3)c3ccccc23)c(=O)[nH]1 | 0.2 to 30 nM
